meta.source: paper PMC3837394

target_of_assay: murine Dnmt3a (Mus musculus, UniProt O88508)
property_label: pIC50
Entry type: numeric. Quantity: pIC50, the -log10 of concentration in molar units.

Q: # pIC50 lookup, item O=C(O)C1=CC(=C(c2ccc(O)c(C(=O)O)c2)c2ccc(O)c(C(=O)O)c2)C=CC1=O
Ans: 5.85

---

target_of_assay: full-length human DNMT1 (Homo sapiens)
Sequence (P26358 whole entry): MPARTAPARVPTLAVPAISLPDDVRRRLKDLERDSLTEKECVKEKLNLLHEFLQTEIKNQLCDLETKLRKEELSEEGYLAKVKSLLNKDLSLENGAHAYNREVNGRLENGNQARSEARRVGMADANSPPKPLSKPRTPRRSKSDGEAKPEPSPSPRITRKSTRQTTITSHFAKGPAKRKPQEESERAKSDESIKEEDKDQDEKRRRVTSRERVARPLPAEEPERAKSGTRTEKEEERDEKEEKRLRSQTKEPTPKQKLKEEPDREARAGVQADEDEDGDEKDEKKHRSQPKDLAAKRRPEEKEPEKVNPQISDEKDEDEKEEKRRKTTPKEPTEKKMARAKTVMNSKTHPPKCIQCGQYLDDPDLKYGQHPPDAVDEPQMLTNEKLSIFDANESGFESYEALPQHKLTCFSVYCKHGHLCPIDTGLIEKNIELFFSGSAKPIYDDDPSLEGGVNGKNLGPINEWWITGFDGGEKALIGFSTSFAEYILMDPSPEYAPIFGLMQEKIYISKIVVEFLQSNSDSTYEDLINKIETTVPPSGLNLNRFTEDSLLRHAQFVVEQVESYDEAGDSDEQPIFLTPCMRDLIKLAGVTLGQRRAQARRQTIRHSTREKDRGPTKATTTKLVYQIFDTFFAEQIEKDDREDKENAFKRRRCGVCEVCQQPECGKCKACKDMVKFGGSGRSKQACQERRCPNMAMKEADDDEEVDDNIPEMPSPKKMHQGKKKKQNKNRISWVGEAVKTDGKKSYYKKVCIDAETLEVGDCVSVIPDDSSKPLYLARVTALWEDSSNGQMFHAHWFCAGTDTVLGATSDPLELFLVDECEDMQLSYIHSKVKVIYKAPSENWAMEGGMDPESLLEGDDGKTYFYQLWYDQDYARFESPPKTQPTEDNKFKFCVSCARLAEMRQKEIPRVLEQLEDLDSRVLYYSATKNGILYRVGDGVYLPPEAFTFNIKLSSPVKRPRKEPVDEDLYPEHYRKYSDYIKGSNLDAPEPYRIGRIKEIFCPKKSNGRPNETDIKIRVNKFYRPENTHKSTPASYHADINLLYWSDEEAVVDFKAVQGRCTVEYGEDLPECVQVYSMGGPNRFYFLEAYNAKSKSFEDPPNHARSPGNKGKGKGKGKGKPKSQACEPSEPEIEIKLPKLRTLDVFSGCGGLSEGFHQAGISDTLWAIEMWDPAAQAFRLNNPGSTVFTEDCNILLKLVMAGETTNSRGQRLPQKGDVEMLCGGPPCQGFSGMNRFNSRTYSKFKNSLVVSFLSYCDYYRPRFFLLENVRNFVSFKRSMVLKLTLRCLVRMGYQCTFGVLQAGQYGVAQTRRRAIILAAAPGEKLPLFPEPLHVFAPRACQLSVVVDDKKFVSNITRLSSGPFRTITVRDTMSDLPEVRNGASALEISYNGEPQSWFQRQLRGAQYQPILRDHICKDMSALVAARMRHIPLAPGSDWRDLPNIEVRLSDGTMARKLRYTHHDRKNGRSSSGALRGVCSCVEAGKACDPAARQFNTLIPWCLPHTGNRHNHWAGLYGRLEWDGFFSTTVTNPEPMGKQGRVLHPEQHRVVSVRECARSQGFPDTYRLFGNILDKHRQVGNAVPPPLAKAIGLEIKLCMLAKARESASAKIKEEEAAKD
experimental_protocol: colorimetric ELISA-like DNMT activity assay
Assay type: biochemical
property_label: pIC50
// pIC50 here means minus log10 of the molar concentration (mol/L)

Q: I'd like to know its pIC50. The molecule in question is O=C(O)C1=CC(=C(c2ccc(O)c(C(=O)O)c2)c2ccc(O)c(C(=O)O)c2)C=CC1=O
Ans: 6.17

Q: Same question for O=C(O[C@@H]1Cc2c(O)cc(O)cc2O[C@@H]1c1cc(O)c(O)c(O)c1)c1cc(O)c(O)c(O)c1 please.
Ans: 6.15
